The values you see were collected from patent US9796742B2.

Recorded pIC50 for the following compounds
test system: PBMCs; assay: LPS-induced TNFα/IL-8 release in PBMC cells; assay type: cell-based; settings: Homo sapiens, LPS-stimulated PBMCs, IL-8, read-out: IC50 Values for Inhibition of Cytokine Release, PBMCs IL-8
pIC50: −log10 of the molar value.
readoutName: pIC50

INSERT INTO measurements (structuresmiles, numericresult) VALUES
  ('COCCOCCOCCOCCOc1cc(Nc2nccc(Oc3ccc(NC(=O)Nc4cc(C(C)C)nn4-c4cccc(CP(C)(C)=O)c4)c4ccccc34)n2)cc(OC)c1', 8.48),
  ('COc1cc(Nc2cc(Oc3ccc(NC(=O)Nc4cc(C(C)C)nn4-c4cccc(CP(C)(C)=O)c4)c4ccccc34)ccn2)cc(C(=O)NCCN2CCOCC2)c1', 9.00),
  ('CC(C)(C)c1cc(NC(=O)Nc2ccc(Oc3ccnc(Nc4ccc5onc(N)c5c4)n3)c3ccccc23)n(-c2ccc(P(C)(C)=O)cc2)n1', 8.05),
  ('COc1cc(Nc2nccc(Oc3ccc(NC(=O)Nc4cc(C(C)C)nn4-c4cccc(CP(C)(C)=O)c4)c4ccccc34)n2)cc(C(=O)NCCN2CCOCC2)c1', 8.42),
  ('CC(C)c1cc(NC(=O)Nc2ccc(Oc3ccnc(Nc4cc(OCCN5CCOCC5)cc(C(F)(F)F)c4)n3)c3ccccc23)n(-c2cccc(CP(C)(C)=O)c2)n1', 8.85),
  ('C#Cc1cc(Nc2nccc(Oc3ccc(NC(=O)Nc4cc(C(C)C)nn4-c4cccc(CP(C)(C)=O)c4)c4ccccc34)n2)cc(C(=O)NCCN2CCOCC2)c1', 8.80),
  ('CC(C)(C)c1cc(NC(=O)Nc2ccc(Oc3ccnc(Nc4cc(OC(F)(F)F)cc(C(=O)NCCN5CCOCC5)c4)n3)c3ccccc23)n(-c2cccc(CP(C)(C)=O)c2)n1', 9.10),
  ('Cc1cc(Nc2nccc(Oc3ccc(NC(=O)Nc4cc(C(C)(C)C)nn4-c4ccc(P(C)(C)=O)cc4)c4ccccc34)n2)cc2cn[nH]c12', 8.47),
  ('CC(C)(C)c1cc(NC(=O)Nc2ccc(Oc3ccnc(N4CCC[C@@H]4CO)n3)c3ccccc23)n(-c2ccc(P(C)(C)=O)cc2)n1', 6.68),
  ('COc1cc(Nc2nccc(Oc3ccc(NC(=O)Nc4cc(C(C)(C)C)nn4-c4cccc(CP(C)(C)=O)c4)c4ccccc34)n2)cc(C(=O)NCCN2CCOCC2)c1', 9.10),
  ('CC(C)(C)c1cc(NC(=O)Nc2ccc(Oc3ccnc(N4CCC[C@H]4CO)n3)c3ccccc23)n(-c2ccc(P(C)(C)=O)cc2)n1', 6.72),
  ('CC(C)(C)c1cc(NC(=O)Nc2ccc(Oc3ccnc(Nc4ccc5c(c4)NC(=O)C5)n3)c3ccccc23)n(-c2cccc(P(C)(C)=O)c2)n1', 7.79),
  ('C[Si](C)(C)c1cc(NC(=O)Nc2ccc(Oc3ccnc(Nc4ccccc4)n3)c3ccccc23)n(-c2cccc(CP(C)(C)=O)c2)n1', 8.12),
  ('COc1cc(Nc2nccc(Oc3ccc(NC(=O)Nc4cc(C(C)C)nn4-c4cccc(CP(C)(C)=O)c4)c4ccccc34)n2)cc(OCCN2CCOCC2)c1', 8.92);
